Recorded Enzyme activity (fold) values for a group of molecules are listed next.
molecular target: Glutamate Dehydrogenase (GDH) (Rattus norvegicus, UniProt P10860); construct: only the supernatant was collected and transferred to a new tube to obtain a cell lysate; endogenous in cells; host or cells: INS-1 cell line (lysate); assay: Enzyme activation experiment: GDH Activity Colorimetric Assay Kit on INS-1 cell lysate; type: biochemical; details: compound concentration 2 μM, vehicle-treated group set to 1
Sequence (P10860 54-558): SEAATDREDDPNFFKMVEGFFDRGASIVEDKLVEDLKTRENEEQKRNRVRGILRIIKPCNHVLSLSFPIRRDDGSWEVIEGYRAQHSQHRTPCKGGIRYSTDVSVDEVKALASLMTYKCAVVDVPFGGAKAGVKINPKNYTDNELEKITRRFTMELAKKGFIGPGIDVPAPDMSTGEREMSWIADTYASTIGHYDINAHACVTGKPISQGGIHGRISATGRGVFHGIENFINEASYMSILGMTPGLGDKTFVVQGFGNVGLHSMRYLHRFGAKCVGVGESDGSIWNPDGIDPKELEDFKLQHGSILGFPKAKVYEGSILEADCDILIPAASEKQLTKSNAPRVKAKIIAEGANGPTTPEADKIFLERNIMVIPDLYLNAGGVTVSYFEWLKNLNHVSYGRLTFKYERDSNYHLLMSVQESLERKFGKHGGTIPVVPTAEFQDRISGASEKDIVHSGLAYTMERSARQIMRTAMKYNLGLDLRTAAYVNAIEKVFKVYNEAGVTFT
Give just the number in fold; leave the unit off.

Past entries and their recorded results:
> print(dat)
                         chemical.structure        measurement.kind  measured.result
1  Nc1nccc(-c2ccc(NC(=O)c3cccc(C(F)(F)F)c3F)cc2)n1  Enzyme activity (fold)            10.83
2  Nc1nccc(-c2ccc(NC(=O)c3cc(Cl)cc(Cl)c3)cc2)n1  Enzyme activity (fold)             6.43
3  Nc1nccc(-c2ccc(NC(=O)c3ccc(Cl)cc3)cc2)n1  Enzyme activity (fold)            11.05
4  Nc1nccc(-c2ccc(NC(=O)c3ccc(Br)cc3)cc2)n1  Enzyme activity (fold)             6.93

For reference, reported Enzyme activity (fold) for COc1cc(C(=O)Nc2ccc(-c3ccnc(N)n3)cc2)ccc1Cl stands at 3.23

====

Recorded Enzyme activity (fold) values for a group of compounds are listed next.
target: Glutamate Dehydrogenase (GDH) (Rattus norvegicus); construct: only the supernatant was collected and transferred to a new tube to obtain a cell lysate; endogenous in cells; host or cells: INS-1 cell line (lysate); test: Enzyme activation experiment: GDH Activity Colorimetric Assay Kit on INS-1 cell lysate; format: biochemical; settings: compound concentration 0.2 μM, vehicle-treated group set to 1
Answers without a unit are incomplete; give the number and then its unit.

Past entries and their recorded results:
> print(dat)
                         chemical.structure        measurement.kind  measured.result
1  COc1cc(C(=O)Nc2ccc(-c3ccnc(N)n3)cc2)ccc1Cl  Enzyme activity (fold)        1.94 fold
2  Nc1nccc(-c2ccc(NC(=O)c3ccc(Br)cc3)cc2)n1  Enzyme activity (fold)        2.14 fold
3  Nc1nccc(-c2ccc(NC(=O)c3ccc(Cl)cc3)cc2)n1  Enzyme activity (fold)        1.34 fold
4  Nc1nccc(-c2ccc(NC(=O)c3cccc(C(F)(F)F)c3F)cc2)n1  Enzyme activity (fold)        2.08 fold

Turning now to a further record.
Entry Nc1nccc(-c2ccc(NC(=O)c3cc(Cl)cc(Cl)c3)cc2)n1 , Glutamate Dehydrogenase (GDH) (Rattus norvegicus) data, Enzyme activity (fold) value: 1.13 fold

Values compiled from patent US12208098B2.
